From: patent US8518891B2

Items are presented alongside their recorded half-life.
target: UniProt:P07288; experiment: PSA cleavage of peptide-linker-drug conjugates, disappearance monitored by HPLC; format: biochemical; settings: PSA, in the presence of PSA; read-out: T1/2 +PSA (PSA-catalyzed cleavage) (converted)
Sequence (P07288 25-261): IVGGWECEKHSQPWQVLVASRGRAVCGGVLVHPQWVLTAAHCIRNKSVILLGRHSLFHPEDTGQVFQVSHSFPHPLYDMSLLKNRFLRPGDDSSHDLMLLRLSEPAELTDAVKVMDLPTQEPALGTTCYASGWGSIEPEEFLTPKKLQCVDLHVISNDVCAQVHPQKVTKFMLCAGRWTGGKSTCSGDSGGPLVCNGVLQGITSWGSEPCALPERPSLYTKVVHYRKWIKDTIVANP
Numbered stars: 1 amine (or outer) side, 2 acyl side, 3 side chain; on linkers, the order of the positions; unused ones are H or OH. Square brackets hold non-standard residues; d marks the D form. Peptide text beside a SMILES is read from it. * marks the point of attachment. X5 = NP(=O)(OCc1c(F)c(F)c(N*)c(F)c1F)N(CCCl)CCCl; X4 = NP(=O)(OCc1c(F)cc(N*)cc1F)N(CCCl)CCCl; X2 = NP(=O)(OCc1ccc(N*)c(F)c1)N(CCCl)CCCl; X1 = NP(=O)(OCc1ccc(N*)cc1F)N(CCCl)CCCl; X3 = NP(=O)(OCc1ccc(N*)cc1)N(CCCl)CCCl; Glutaryl = O=C(CCCC(=O)[*:2])[*:1]; Hyp = O=C(O)[C@@H]1C[C@@H](O)CN1; Chg = N[C@H](C(=O)O)C1CCCCC1
Output spec: scalar in h, unitless text.

The cases that follow already have their half-life on record.
[[record]]
compound = "C[C@H](NC(=O)[C@@H]1C[C@@H](O)CN1C(=O)CCCC(=O)O)C(=O)N[C@@H](CO)C(=O)N[C@H](C(=O)N[C@@H](CCC(N)=O)C(=O)Nc1ccc(COP(N)(=O)N(CCCl)CCCl)cc1)C1CCCCC1 (some centres unmarked) [5a] (Glutaryl-[Hyp]AS[Chg]Q-X3)"
targetofassay = "UniProt:P07288"
readoutunits = "h"
readoutnumber = 1.2

[[record]]
compound = "C[C@H](NC(=O)[C@@H]1C[C@@H](O)CN1C(=O)CCCC(=O)O)C(=O)N[C@@H](CO)C(=O)N[C@H](C(=O)N[C@@H](CCC(N)=O)C(=O)Nc1cc(F)c(COP(N)(=O)N(CCCl)CCCl)c(F)c1)C1CCCCC1 (some centres unmarked) [5d] (Glutaryl-[Hyp]AS[Chg]Q-X4)"
targetofassay = "UniProt:P07288"
readoutunits = "h"
readoutnumber = 1.75

[[record]]
compound = "C[C@H](NC(=O)[C@@H]1C[C@@H](O)CN1C(=O)CCCC(=O)O)C(=O)N[C@@H](CO)C(=O)N[C@H](C(=O)N[C@@H](CCC(N)=O)C(=O)Nc1ccc(COP(N)(=O)N(CCCl)CCCl)c(F)c1)C1CCCCC1 (some centres unmarked) [5b] (Glutaryl-[Hyp]AS[Chg]Q-X1)"
targetofassay = "UniProt:P07288"
readoutunits = "h"
readoutnumber = 0.93

[[record]]
compound = "C[C@H](NC(=O)[C@@H]1C[C@@H](O)CN1C(=O)CCCC(=O)O)C(=O)N[C@@H](CO)C(=O)N[C@H](C(=O)N[C@@H](CCC(N)=O)C(=O)Nc1c(F)c(F)c(COP(N)(=O)N(CCCl)CCCl)c(F)c1F)C1CCCCC1 (some centres unmarked) [5e] (Glutaryl-[Hyp]AS[Chg]Q-X5)"
targetofassay = "UniProt:P07288"
readoutunits = "h"
readoutnumber = 1.1


// moving on: another record for half-life
**Query** Recorded half-life of C[C@H](NC(=O)[C@@H]1C[C@@H](O)CN1C(=O)CCCC(=O)O)C(=O)N[C@@H](CO)C(=O)N[C@H](C(=O)N[C@@H](CCC(N)=O)C(=O)Nc1ccc(COP(N)(=O)N(CCCl)CCCl)cc1F)C1CCCCC1 (some centres unmarked) [5c] (Glutaryl-[Hyp]AS[Chg]Q-X2) , please.
**Result** 0.65
